B1: STEAP1 (parent)
chain: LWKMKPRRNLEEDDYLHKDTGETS

variants of: B1; test: protein stability index of a GFP-peptide fusion (GPS, HEK-293T) (PSI 1-6); higher = more stable; conditions: c terminus: a fixed tail appended;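 further: lentivirally expressed fusions sorted by FACS into six bins by GFP to DsRed ratio, PSI derived from sequencing read proportions per bin multiplied by bin number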
measured_parameter: protein stability index
One number for each entry.

Here's what some known entries look like.
| changes | measured_parameter | observed_measurement |
| --- | --- | --- |
| E11N | protein stability index | 3.83 |
| E12Q | protein stability index | 4.23 |
| K18H | protein stability index | 4.62 |
| R7A | protein stability index | 4.83 |
| P6F | protein stability index | 3.62 |
| P6K | protein stability index | 4.1 |

Give protein stability index for each of the items listed below.
1. E22R
2. D14T
3. K5Q
4. L1N
5. L16E
6. R7Y
7. N9D
8. N9C

## Output
3.69
4.46
4.86
4.84
4.79
3.94
4.53
3.81

Give protein stability index for each of the items listed below.
1. K3D
2. L1E
3. H17V
4. T23C
5. R8Q

## Output
[5.06, 5.32, 4.71, 4.05, 4.67]
